Every entry's value here was drawn from PubChem BioAssay AID1851.

# target.system: Cytochrome P450 2D6 (Homo sapiens) (UniProt P10635)
# Sequence (P10635 whole entry, looked up): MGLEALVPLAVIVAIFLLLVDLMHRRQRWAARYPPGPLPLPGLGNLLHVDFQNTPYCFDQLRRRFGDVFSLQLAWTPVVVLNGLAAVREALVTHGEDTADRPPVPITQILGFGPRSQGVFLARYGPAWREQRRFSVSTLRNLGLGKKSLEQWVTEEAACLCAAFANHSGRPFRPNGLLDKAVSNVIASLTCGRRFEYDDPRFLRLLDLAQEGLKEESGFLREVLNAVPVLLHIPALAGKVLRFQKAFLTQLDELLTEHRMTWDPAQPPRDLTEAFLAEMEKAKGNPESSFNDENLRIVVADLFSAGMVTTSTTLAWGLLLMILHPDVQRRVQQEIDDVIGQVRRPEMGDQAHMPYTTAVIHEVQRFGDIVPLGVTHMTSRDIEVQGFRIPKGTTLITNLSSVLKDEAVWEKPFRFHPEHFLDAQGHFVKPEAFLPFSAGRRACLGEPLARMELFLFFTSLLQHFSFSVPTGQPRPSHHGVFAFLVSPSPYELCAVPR
# test.protocol: Cytochrome panel assay with activity outcomes
# test.context: recombinant CYP, pro-luciferin dealkylation, luminescence, p450-cyp2d6; series mostly up to 57.1 µM
Out of some 16,000 compounds screened, about 2,600 (16%) were called active. Another 20% or so got no clear call; they are omitted. These entries were drawn from the full list.
measured.parameter: AC50

Worked cases, answers included:
molecule | assay.result
CC(C)NC[C@H](O)c1ccc(NS(C)(=O)=O)cc1 | inactive
CC(C)Nc1nc(NC(C)(C)C)nc(Oc2ccc(=O)n(-c3ccccc3)n2)n1 | inactive
Cn1cccc1CC(=O)N/N=C\c1cccs1 | inactive
Cc1noc(C)c1-c1nccc(N(C)C)n1 | inactive

[in] Given CCOC(=O)c1c(NC(=O)Cn2nc([N+](=O)[O-])c(Br)c2C)sc2c1CCC(C)C2 (stereo not drawn) , state its recorded AC50.
[out] inactive

[in] What would you report for Cc1ccc2c(c1)N(CCC(=O)NCCN1CCOCC1)C(=O)CO2 ?
[out] inactive

---

# target.system: Cytochrome P450 2D6 (Homo sapiens)
# test.protocol: Cytochrome panel assay with activity outcomes; on activity, negative = inhibition: on the % scale 0 is the no-effect control and ±100 the full control effect
# test.context: recombinant CYP, pro-luciferin dealkylation, luminescence, p450-cyp2d6; series mostly up to 57.1 µM
Out of some 16,000 compounds screened, about 2,600 (16%) were called active. Not shown: some 20% with an inconclusive outcome. Not all results are given here.
Please go through the items and note down their activity, negative = inhibition.

[in] Given Nc1ccc(S(=O)(=O)c2ccc(NC(=O)c3cccnc3)cc2)cc1 , state its recorded activity, negative = inhibition.
[out] -2.49% [at 11.4 µM] (inactive)

[in] What would you report for CC(C)c1ccc(/C(C(=O)O)=C(\O)C(=O)O)cc1 ?
[out] 0.432% [at 11.4 µM] (inactive)

[in] What would you report for c1ccc(CCNc2ccccn2)nc1 ?
[out] -8.12% [at 11.4 µM] (inactive)

[in] What would you report for CO[C@@H]1COC(=O)[C@H]2CCCN2C(=O)[C@@H](C)COC(=O)CCC[C@H]1C ?
[out] 12% [at 11.4 µM] (inactive)

[in] What would you report for CN(C)CCNc1ccccn1 ?
[out] -15.2% [at 11.4 µM] (inactive)

[in] What would you report for O=C(Nc1ccc2ncccc2c1)Nc1ccc2ncccc2c1 ?
[out] -10.5% [at 11.4 µM] (inactive)

---

# target.system: Cytochrome P450 2D6 (Homo sapiens)
# test.protocol: Cytochrome panel assay with activity outcomes
# test.context: recombinant CYP, pro-luciferin dealkylation, luminescence, p450-cyp2d6; series mostly up to 57.1 µM
In all, about 16,000 compounds went through this assay and about 2,600 (16%) were called active. About 20% were inconclusive and are not listed. The call rests on the fitted dose curve; in most records, active means well fitted curve in the direction sought with a large enough effect; inconclusive means small, poorly fitted or top-dose-only effect, or effect the other way; inactive means no such curve, though single readings can be large or run the other way. These entries were drawn from the full list.
Allowed answers: active, inactive

[in] So what was the verdict on O=C(NC1CCCCC1)c1ccc(COCC(F)(F)F)o1 in this test?
[out] inactive

[in] What would you report for CCO/C([O-])=N/c1c[n+](N2CCOCC2)no1 ?
[out] inactive

[in] What would you report for O=[N+]([O-])c1cc(/C=N/O)ccc1SCc1ccccc1 ?
[out] inactive

[in] What would you report for O=C(c1cc(-c2ccccc2Cl)on1)N1CCN(C(=O)c2ccco2)CC1 ?
[out] inactive

[in] What would you report for Clc1ccc(CC[C@H](Cn2ccnc2)Sc2c(Cl)cccc2Cl)cc1 ?
[out] active

[in] What would you report for COc1cccc(-c2cc(NCCc3c[nH]c4ccc(OC)cc34)ncn2)c1 ?
[out] active

[in] What would you report for O=c1c(-c2ccc(F)cc2)nc2cnc(N3CCOCC3)nc2n1C1CC1 ?
[out] inactive

[in] What would you report for COc1ccc(-c2nc(C(=O)N3CCN(C)CC3)sc2-c2ccc(OC)cc2)cc1 ?
[out] inactive

[in] What would you report for CC(=O)Nc1c(I)c(C(=O)N[C@H]2[C@@H](O)[C@H](O)[C@H](CO)O[C@@H]2O)c(I)c(N(C)C(C)=O)c1I ?
[out] inactive

[in] What would you report for COCCNc1cc(-c2ccccc2C(F)(F)F)ncn1 ?
[out] inactive

[in] What would you report for CS(=O)(=O)c1cnc2c(-c3ccc(F)cc3)cnn2c1N ?
[out] inactive

---

# target.system: Cytochrome P450 2D6 (Homo sapiens) (UniProt P10635)
# test.protocol: Cytochrome panel assay with activity outcomes
# test.context: recombinant CYP, pro-luciferin dealkylation, luminescence, p450-cyp2d6; series mostly up to 57.1 µM
The whole screen tested about 16,000 compounds, of which about 2,600 (16%) were called active. Not shown: some 20% with an inconclusive outcome. Calls come from the whole dose curve; as a rule, active = well fitted curve in the direction sought with a large enough effect; inconclusive = small, poorly fitted or top-dose-only effect, or effect the other way; inactive = no such curve, though single readings can be large or run the other way. The list is a sample of the results.
Allowed answers: True for active, False for inactive

[in] So what was the verdict on Cc1ccccc1C(=O)NNC(=O)c1ccc(F)cc1 in this test?
[out] False

[in] What would you report for COC(=O)c1cn(NC(=O)c2ccc(F)cc2)c(=O)c2ccccc12 ?
[out] False

[in] What would you report for NS(=O)(=O)c1ccc(NS(=O)(=O)c2ccc(NC(=O)c3ccc(-c4ccccc4)cc3)cc2)cc1 ?
[out] False

[in] What would you report for COC(=O)c1ccc(NC(=S)NC2CCCCC2)cc1 ?
[out] True

[in] What would you report for COC(=O)c1ccc(NC(=O)C2CCCCC2C(=O)O)cc1 (configuration not stated) ?
[out] False

[in] What would you report for CCOC(=O)C(CC)(CC)C(=O)/C=C/c1ccc(Br)cc1 ?
[out] False

[in] What would you report for Cc1ccc2c(c1)N(CC(=O)NC1CCCc3ccccc31)C(=O)CO2 (configuration not stated) ?
[out] True

[in] What would you report for CCCc1c(OCCCOc2ccc(OCC(=O)O)cc2)ccc(C(C)=O)c1O ?
[out] False

[in] What would you report for COC(=O)c1ccccc1NC(=O)c1ccc(F)cc1 ?
[out] True

[in] What would you report for CCOC(=O)N1N=C(c2ccccc2)CC1(O)C(F)(F)F (configuration not stated) ?
[out] False

[in] What would you report for Cc1ccc(NC(=S)NC2CCCC2)cc1 ?
[out] False

[in] What would you report for Cc1ccc2c(c1)-c1c(cnn1CC(=O)O)CO2 ?
[out] False

---

# target.system: Cytochrome P450 2D6 (Homo sapiens) (UniProt P10635)
# test.protocol: Cytochrome panel assay with activity outcomes
# test.context: recombinant CYP, pro-luciferin dealkylation, luminescence, p450-cyp2d6; series mostly up to 57.1 µM
Hit rate of the full screen: of about 16,000 compounds, about 2,600 (16%) were called active. About 20% were inconclusive and are not listed. Calls come from the whole dose curve; as a rule, active = well fitted curve in the direction sought with a large enough effect; inconclusive = small, poorly fitted or top-dose-only effect, or effect the other way; inactive = no such curve, though single readings can be large or run the other way. These entries were drawn from the full list.
Allowed answers: active, inactive

[in] So what was the verdict on Cc1ccc(CS(=O)(=O)CCC(=O)NCc2ccccn2)cc1 in this test?
[out] inactive

[in] What would you report for Cc1cc(Br)ccc1NCc1ccccn1 ?
[out] active

[in] What would you report for COn1c(SCc2cccc(Cl)c2)nc2ccccc2c1=O ?
[out] active

[in] What would you report for Cc1ccc(C(=O)ON=C2CCN(S(=O)(=O)c3ccccc3)CC2)cc1 ?
[out] inactive

[in] What would you report for CC1=CC=CN2CC(O)CN=C12 (configuration not stated) ?
[out] inactive

[in] What would you report for Oc1ccccc1C1Nc2cccc3cccc(c23)N1 ?
[out] active

[in] What would you report for CCc1ccc(N(C(=O)c2csnn2)C(C(=O)NCc2ccccc2)c2ccco2)cc1 (configuration not stated) ?
[out] inactive

[in] What would you report for COCCN(CCOC)S(=O)(=O)c1ccc(C(=O)Nc2nc(C)c(C(C)=O)s2)cc1 ?
[out] inactive

[in] What would you report for Cc1cc(NCc2ccccn2)ccc1Br ?
[out] inactive

[in] What would you report for COn1c(SC(C)C)nc2ccccc2c1=O ?
[out] inactive

[in] What would you report for Cc1cc(C)n(-c2nc3ccccc3c(=O)n2OCc2ccc(Cl)cc2)n1 ?
[out] inactive

[in] What would you report for CC(C)On1c(SC(C)C)nc2ccccc2c1=O ?
[out] inactive

---

# target.system: Cytochrome P450 2D6 (Homo sapiens) (UniProt P10635)
# test.protocol: Cytochrome panel assay with activity outcomes
# test.context: recombinant CYP, pro-luciferin dealkylation, luminescence, p450-cyp2d6; series mostly up to 57.1 µM
Out of some 16,000 compounds screened, about 2,600 (16%) were called active. Roughly 20% stayed inconclusive and do not appear here. Calls come from the whole dose curve; as a rule, active = well fitted curve in the direction sought with a large enough effect; inconclusive = small, poorly fitted or top-dose-only effect, or effect the other way; inactive = no such curve, though single readings can be large or run the other way. The list is a sample of the results.
Allowed answers: active, inactive

[in] So what was the verdict on CCC/C=C(\CCC)C(NS(=O)(=O)c1cccc2cccnc12)c1ccc(-c2ccccc2)cc1 (stereo not drawn) in this test?
[out] inactive

[in] What would you report for Cc1nc2cnc(Oc3cccc(Cl)c3)nc2n(CCc2ccccc2)c1=O ?
[out] inactive

[in] What would you report for O=C1CCCCC(=O)c2ccccc2N1 ?
[out] inactive

[in] What would you report for O=C1Cc2c([nH]c3ccc(Br)cc23)-c2ccccc2N1 ?
[out] active

[in] What would you report for O=C1CN(c2nc(-c3ccccc3)c3cc(Br)ccc3n2)c2ccccc2N1 ?
[out] inactive

[in] What would you report for CC(=O)OC[C@@H]1O[C@@H](O/N=C2/C[C@@H](O)[C@@H](O)[C@@H]3[C@@H]4C(=O)N(Cc5ccccc5)C(=O)[C@H]4CC[C@H]23)[C@H](OC(C)=O)[C@H](OC(C)=O)[C@@H]1OC(C)=O ?
[out] active

[in] What would you report for COc1ccc(Sc2nc3ccccc3n3c(C(F)(F)F)nnc23)cc1 ?
[out] inactive

[in] What would you report for CC(=O)OC[C@@H]1O[C@@H](O/N=C2/C[C@@H](O)[C@@H](O)[C@@H]3[C@@H]4C(=O)N(Cc5ccccc5)C(=O)[C@H]4CC[C@@H]23)[C@H](OC(C)=O)[C@H](OC(C)=O)[C@@H]1OC(C)=O ?
[out] active
